# TARGET_OR_SYSTEM: KRAS WT (Homo sapiens, UniProt P01116+P62937)
# Sequence (P01116 1-169 isoform P01116-2 limits assumed, one chain of several): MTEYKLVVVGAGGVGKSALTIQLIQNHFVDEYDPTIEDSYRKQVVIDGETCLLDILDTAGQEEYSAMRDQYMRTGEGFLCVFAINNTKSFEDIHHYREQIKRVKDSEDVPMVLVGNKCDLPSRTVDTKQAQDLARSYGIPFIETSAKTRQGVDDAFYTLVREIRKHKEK
# METHOD_DESCRIPTION: Ras-Raf disruption / FRET / MOA assay (BRAF RBD)
# Format: biochemical
# PARTICULARS: KRAS WT FRET data IC50, Ras-Raf disruption, with Cyclophilin A
Exercise: for every item that follows, state its recorded IC50.

GET /values?readout=IC50&item= CCn1c(-c2cnccc2COC)c2c3cc(ccc31)-c1cc(O)cc(c1)C[C@H](NC(=O)[C@H](C(C)C)N(C)C(=O)CN(C)C(=O)C1CN1)C(=O)N1CCC[C@H](N1)C(=O)OCC(C)(C)C2 (stereo partly shown)
> 10000 nM

Can you handle CCn1c(-c2cccnc2[C@H](C)OC)c2c3cc(ccc31)-c1cc(O)cc(c1)C[C@H](NC(=O)[C@H](C(C)C)N(C)C(=O)CN(C)C(=O)[C@H]1CN1Cc1ccccc1CO)C(=O)N1CCC[C@H](N1)C(=O)OCC(C)(C)C2 (stereo partly shown) next?
10 to 100 nM

Can you handle `CCn1c(-c2cccnc2[C@H](C)OC)c2c3cc(ccc31)-c1cc(O)cc(c1)C[C@H](NC(=O)[C@H](C(C)C)N(C)C(=O)[C@]13C[C@H]1CCN3C(=O)[C@@H]1CN1)C(=O)N1CCC[C@H](N1)C(=O)OCC(C)(C)C2` next?
100 to 1000 nM

Can you handle `CCn1c(-c2cccnc2[C@H](C)OC)c2c3cc(ccc31)-c1cc(O)cc(c1)C[C@H](NC(=O)[C@H](C(C)C)N(C)C(=O)CN(C)C(=O)[C@H]1N[C@@H]1C(F)(F)F)C(=O)N1CCC[C@H](N1)C(=O)OCC(C)(C)C2` next?
10 to 100 nM

Can you handle `CCn1c(-c2cccnc2[C@H](C)OC)c2c3cc(ccc31)-c1cc(O)cc(c1)C[C@H](NC(=O)[C@H](C(C)C)N(C)C(=O)CN(C)C(=O)[C@H]1N[C@@H]1C1COC1)C(=O)N1CCC[C@H](N1)C(=O)OCC(C)(C)C2` next?
10 to 100 nM

Can you handle `CCn1c(-c2cccnc2[C@H](C)OC)c2c3cc(ccc31)-c1cc(O)cc(c1)C[C@H](NC(=O)[C@H](C(C)C)N(C)C(=O)[C@H]1CC[C@@H](C)N1C(=O)[C@H]1CN1)C(=O)N1CCC[C@H](N1)C(=O)OCC(C)(C)C2` next?
100 to 1000 nM

Can you handle `CCn1c(-c2cccnc2[C@H](C)OC)c2c3cc(ccc31)-c1cc(O)cc(c1)C[C@H](NC(=O)[C@H](C(C)C)N(C)C(=O)[C@H](C)N(C)C(=O)[C@H]1CN1)C(=O)N1CCC[C@H](N1)C(=O)OCC(C)(C)C2` next?
10 to 100 nM

Can you handle CCn1c(-c2cccnc2[C@H](C)OC)c2c3cc(ccc31)-c1cc(O)cc(c1)C[C@H](NC(=O)[C@H](C(C)C)N(C)C(=O)CN(C)C(=O)[C@H]1CN1CCO)C(=O)N1CCC[C@H](N1)C(=O)OCC(C)(C)C2 (stereo partly shown) next?
10 to 100 nM

Can you handle `CCn1c(-c2cccnc2[C@H](C)OC)c2c3cc(ccc31)-c1cc(O)cc(c1)C[C@H](NC(=O)[C@H](C1CCCC1)N(C)C(=O)CN(C)C(=O)[C@H]1N[C@H]1C1(C#N)CC1)C(=O)N1CCC[C@H](N1)C(=O)OCC(C)(C)C2` next?
10 to 100 nM

Can you handle `CC[C@H]1N[C@H]1C(=O)N(C)CC(=O)N(C)[C@H](C(=O)N[C@H]1Cc2cc(O)cc(c2)-c2ccc3c(c2)c(c(-c2cccnc2[C@H](C)OC)n3CC)CC(C)(C)COC(=O)[C@@H]2CCCN(N2)C1=O)C(C)C` next?
10 to 100 nM

Can you handle `CCn1c(-c2cccnc2[C@H](C)OC)c2c3cc(ccc31)-c1cc(O)cc(c1)C[C@H](NC(=O)[C@H](C(C)C)N(C)C(=O)[C@H]1CCN1C(=O)[C@@H]1CN1)C(=O)N1CCC[C@H](N1)C(=O)OCC(C)(C)C2` next?
10 to 100 nM

Can you handle CCn1c(-c2cccnc2[C@H](C)OC)c2c3cc(ccc31)-c1cc(O)cc(c1)C[C@H](NC(=O)[C@H](C(C)C)N(C)C(=O)CN(C)C(=O)[C@H]1CN1CCCOC(C)=O)C(=O)N1CCC[C@H](N1)C(=O)OCC(C)(C)C2 (stereo partly shown) next?
100 to 1000 nM

Can you handle `CCn1c(-c2cccnc2[C@H](C)OC)c2c3cc(ccc31)-c1cc(O)cc(c1)C[C@H](NC(=O)[C@H](C(C)C)N(C)C(=O)C13CC(CN1C(=O)[C@H]1CN1)C3)C(=O)N1CCC[C@H](N1)C(=O)OCC(C)(C)C2` next?
100 to 1000 nM

Can you handle CCn1c(-c2cccnc2[C@H](C)OC)c2c3cc(ccc31)-c1cc(O)cc(c1)C[C@H](NC(=O)[C@H](C(C)C)N(C)C(=O)CN(C)C(=O)[C@@H]1CN1C1COC1)C(=O)N1CCC[C@H](N1)C(=O)OCC(C)(C)C2 (stereo partly shown) next?
10 to 100 nM

Can you handle CCn1c(-c2cccnc2[C@H](C)OC)c2c3cc(ccc31)-c1cc(O)cc(c1)C[C@H](NC(=O)[C@H](C(C)C)N(C)C(=O)CN(C)C(=O)[C@H]1CN1CCCOC)C(=O)N1CCC[C@H](N1)C(=O)OCC(C)(C)C2 (stereo partly shown) next?
10 to 100 nM

Can you handle CCN1C[C@@H]1C(=O)N(C)CC(=O)N(C)[C@H](C(=O)N[C@H]1Cc2cc(O)cc(c2)-c2ccc3c(c2)c(c(-c2cccnc2[C@H](C)OC)n3CC)CC(C)(C)COC(=O)[C@@H]2CCCN(N2)C1=O)C1CCCC1 (stereo partly shown) next?
10 to 100 nM

----------
Exercise: for every item that follows, state its recorded IC50.
# TARGET_OR_SYSTEM: KRAS G13D (Homo sapiens, UniProt P01116+P62937, G13D)
# Sequence (P01116 1-169 isoform P01116-2 G13D limits assumed, one chain of several): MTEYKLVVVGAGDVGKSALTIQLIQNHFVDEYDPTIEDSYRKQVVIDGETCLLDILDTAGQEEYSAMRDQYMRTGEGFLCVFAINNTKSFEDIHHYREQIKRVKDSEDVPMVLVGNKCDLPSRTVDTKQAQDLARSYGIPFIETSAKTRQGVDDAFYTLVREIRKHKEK
# METHOD_DESCRIPTION: Ras-Raf disruption / FRET / MOA assay (BRAF RBD)
# Format: biochemical
# PARTICULARS: KRAS G13D FRET data IC50, Ras-Raf disruption, with Cyclophilin A

GET /values?readout=IC50&item= CCn1c(-c2cccnc2[C@H](C)OC)c2c3cc(ccc31)-c1cc(O)cc(c1)C[C@H](NC(=O)[C@H](C1CCCC1)N(C)C(=O)CN(C)C(=O)[C@H]1N[C@H]1C1(OC)CC1)C(=O)N1CCC[C@H](N1)C(=O)OCC(C)(C)C2 (single isomer, unassigned)
100 to 1000 nM

Can you handle `CCn1c(-c2cccnc2[C@H](C)OC)c2c3cc(ccc31)-c1cc(O)cc(c1)C[C@H](NC(=O)[C@H](C(C)C)N(C)C(=O)[C@H]1CC[C@@H](C)N1C(=O)[C@H]1CN1)C(=O)N1CCC[C@H](N1)C(=O)OCC(C)(C)C2` next?
1000 to 10000 nM

----------
# TARGET_OR_SYSTEM: KRAS G13D (Homo sapiens, UniProt P01116+P62937, G13D)
# METHOD_DESCRIPTION: Disruption of BRAF RBD interaction with Ras (FRET / MOA assay, with Cyclophilin A)
# Assay type: biochemical
# PARTICULARS: KRAS G13D; read-out: KRAS G13D FRET data IC50
Exercise: for every item that follows, state its recorded IC50.

GET /values?readout=IC50&item= CCn1c(-c2cccnc2[C@H](C)OC)c2c3cc(ccc31)-c1csc(n1)C[C@H](NC(=O)[C@H](C(C)C)N(C)C(=O)N(C)C1CN(C(=O)/C=C/C(C)(C)O)C1)C(=O)N1CCC[C@H](N1)C(=O)OCC(C)(C)C2 (atropisomer, axis not shown)
0.1 to 1 µM

Can you handle `CCn1c(-c2cccnc2[C@H](C)OC)c2c3cc(ccc31)-c1cc(O)cc(c1)C[C@H](NC(=O)[C@H](C(C)C)N(C)C(=O)[C@H]1CCN(C(=O)CN)C1)C(=O)N1CCC[C@H](N1)C(=O)OCC(C)(C)C2` next?
0.01 to 0.1 µM

----------
Exercise: for every item that follows, state its recorded pIC50.
# TARGET_OR_SYSTEM: KRAS G13C (Homo sapiens, UniProt P01116+P62937, G13C)
# Sequence (P01116 1-169 isoform P01116-2 G13C): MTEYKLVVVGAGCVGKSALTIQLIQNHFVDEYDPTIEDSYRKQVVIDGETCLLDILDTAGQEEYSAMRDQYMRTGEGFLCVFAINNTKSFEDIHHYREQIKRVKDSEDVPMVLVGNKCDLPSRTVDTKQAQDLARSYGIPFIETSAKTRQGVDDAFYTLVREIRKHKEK
# Sequence (P62937 whole entry): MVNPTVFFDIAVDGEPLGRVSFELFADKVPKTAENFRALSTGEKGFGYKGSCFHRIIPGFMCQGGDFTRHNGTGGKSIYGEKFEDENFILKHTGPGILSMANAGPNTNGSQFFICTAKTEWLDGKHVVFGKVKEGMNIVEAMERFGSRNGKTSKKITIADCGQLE
# METHOD_DESCRIPTION: Disruption of BRAF RBD interaction with Ras (FRET / MOA assay, with Cyclophilin A)
# Format: biochemical
# PARTICULARS: read-out: KRAS G13C FRET data, IC50
pIC50: −log10 of the molar value.

GET /values?readout=pIC50&item= CCn1c(-c2cccnc2[C@H](C)OC)c2c3cc(ccc31)-c1csc(n1)C[C@H](NC(=O)[C@H](C(C)C)N(C)C(=O)N1CC3(CC(N(C)C)C3)C1)C(=O)N1CCC[C@H](N1)C(=O)OCC(C)(C)C2 (atropisomer, axis not shown) [Example A280]
6.00 to 7.00

Can you handle CCn1c(-c2cccnc2[C@H](C)OC)c2c3cc(ccc31)-c1csc(n1)C[C@H](NC(=O)[C@H](C(C)C)N(C)C(=O)N1CC([C@H](C)CO)C1)C(=O)N1CCC[C@H](N1)C(=O)OCC(C)(C)C2 (atropisomer, axis not shown) [Example A478] next?
6.00 to 7.00

Can you handle CCn1c(-c2cccnc2[C@H](C)OC)c2c3cc(ccc31)-c1cc(O)cc(c1)C[C@H](NC(=O)[C@H](C(C)C)N(C)C(=O)Cc1cc[nH]n1)C(=O)N1CCC[C@H](N1)C(=O)OCC(C)(C)C2 [Example A126] next?
7.00 to 8.00

Can you handle CCn1c(-c2cccnc2[C@H](C)OC)c2c3cc(ccc31)-c1csc(n1)C[C@H](NC(=O)[C@H](C(C)C)N(C)C(=O)N1CC(N(C)S(C)(=O)=O)C1)C(=O)N1CCC[C@H](N1)C(=O)OCC(C)(C)C2 (atropisomer, axis not shown) [Example A550] next?
6.00 to 7.00
